Test system: Yap1 mRNA
Assay: Dose-dependent inhibition of human Yap1 in A-431 cells (Example 8, 10,000 cells per well, RTS4814)
Format: cell-based
Conditions: 125.0 nM; A-431 cells, 10,000 cells per well, free uptake, approximately 48 hours, RTS4814
Strand notation (5' to 3'): a small letter for the sugar, then the base; units joined by * are phosphorothioate-linked, units joined directly phosphodiester-linked; [ ] holds rarer units or linkages, { } end groups; capitals alone tell only the bases. k = constrained ethyl (cEt); [5mC] = 5-methylcytosine; d = 2'-deoxy (DNA)
measurement-name: Yap1 mRNA, % UTC (% UTC)
Report only the number, with the unit % UTC understood.

Illustrative cases are given below, each with its answer.
Measured Yap1 mRNA, % UTC, 1076370 (antisense kG*kA*kT*dT*dA*dT*dT*d[5mC]*dG*dG*dT*dA*dT*kT*kT*kT) [compound 1076370] : 12

response.value for 1074801 (kA*k[5mC]*kA*dA*dA*dT*dA*dG*dT*dG*d[5mC]*dT*dT*kT*kG*kG; antisense) [compound 1074801] (field: Yap1 mRNA, % UTC) = 41

// sample 1075047 (antisense kT*kA*kA*dA*dA*dT*dT*dA*dG*dA*d[5mC]*dT*d[5mC]*k[5mC]*k[5mC]*k[5mC]) [compound 1075047] , its Yap1 mRNA, % UTC was 63

Value of Yap1 mRNA, % UTC reported for the substance 1074464 (kT*kT*kA*dG*dA*dG*dT*dA*dT*dG*dT*dG*dG*k[5mC]*kA*kA) [compound 1074464] is 6

Lab book: Yap1 mRNA, % UTC of 1075401 (antisense k[5mC]*kG*kA*dT*dT*dA*dA*dA*dA*d[5mC]*dA*d[5mC]*dT*kG*kG*kT) [compound 1075401] noted as 26

Just so you know, measured Yap1 mRNA, % UTC for 1074407 (kT*kA*kA*dA*dG*dT*dA*dT*d[5mC]*dT*dT*dG*d[5mC]*kT*kG*kG; antisense) [compound 1074407] came out at 27

Entry 1076489 (k[5mC]*kA*kA*dA*dA*dT*dA*dG*dG*dT*dG*dA*dG*kT*k[5mC]*kA; antisense) [compound 1076489] ; Yap1 mRNA, % UTC = 13

Lookup result for 1074753 (kT*kA*k[5mC]*dA*dT*dT*dA*dG*dG*dA*dA*d[5mC]*dA*kA*kG*kG; antisense) [compound 1074753] ; measured Yap1 mRNA, % UTC: 10

More entries:
Looking up 1074418 (kT*kT*k[5mC]*dT*dT*dT*dA*dG*dA*dG*d[5mC]*d[5mC]*dA*kA*k[5mC]*kT; antisense) [compound 1074418] , I see its Yap1 mRNA, % UTC listed as 26

Short answer for 1074756 (kG*k[5mC]*kA*d[5mC]*dT*dT*dT*dT*dA*d[5mC]*dA*dT*dT*kA*kG*kG) [compound 1074756] : Yap1 mRNA, % UTC was 7

According to the records, this substance 1074817 (k[5mC]*kT*kG*dA*dA*dT*dA*dT*dT*dG*d[5mC]*d[5mC]*dA*k[5mC]*k[5mC]*k[5mC]; antisense) [compound 1074817] displays Yap1 mRNA, % UTC of 22

Yap1 mRNA, % UTC reading for 1076294 (kT*kA*kT*dA*dT*dT*dA*dG*dT*dG*d[5mC]*d[5mC]*d[5mC]*k[5mC]*k[5mC]*kT; antisense) [compound 1076294] : 50

Record summary for 1075089 (k[5mC]*kA*kT*dT*dT*dA*dT*dA*dG*dT*d[5mC]*dA*dG*kG*kT*kT; antisense) [compound 1075089] : reported Yap1 mRNA, % UTC = 9

Origin of the recorded values: patent US11214803B2
